Record form. Attribute: pIC50. Fill in for each entry.
# experimental target: EGFR L858R/T790M/C797S (Homo sapiens, UniProt P00533, C797S/L858R/T790M)
# Sequence (P00533 25-1210 T790M/C797S/L858R): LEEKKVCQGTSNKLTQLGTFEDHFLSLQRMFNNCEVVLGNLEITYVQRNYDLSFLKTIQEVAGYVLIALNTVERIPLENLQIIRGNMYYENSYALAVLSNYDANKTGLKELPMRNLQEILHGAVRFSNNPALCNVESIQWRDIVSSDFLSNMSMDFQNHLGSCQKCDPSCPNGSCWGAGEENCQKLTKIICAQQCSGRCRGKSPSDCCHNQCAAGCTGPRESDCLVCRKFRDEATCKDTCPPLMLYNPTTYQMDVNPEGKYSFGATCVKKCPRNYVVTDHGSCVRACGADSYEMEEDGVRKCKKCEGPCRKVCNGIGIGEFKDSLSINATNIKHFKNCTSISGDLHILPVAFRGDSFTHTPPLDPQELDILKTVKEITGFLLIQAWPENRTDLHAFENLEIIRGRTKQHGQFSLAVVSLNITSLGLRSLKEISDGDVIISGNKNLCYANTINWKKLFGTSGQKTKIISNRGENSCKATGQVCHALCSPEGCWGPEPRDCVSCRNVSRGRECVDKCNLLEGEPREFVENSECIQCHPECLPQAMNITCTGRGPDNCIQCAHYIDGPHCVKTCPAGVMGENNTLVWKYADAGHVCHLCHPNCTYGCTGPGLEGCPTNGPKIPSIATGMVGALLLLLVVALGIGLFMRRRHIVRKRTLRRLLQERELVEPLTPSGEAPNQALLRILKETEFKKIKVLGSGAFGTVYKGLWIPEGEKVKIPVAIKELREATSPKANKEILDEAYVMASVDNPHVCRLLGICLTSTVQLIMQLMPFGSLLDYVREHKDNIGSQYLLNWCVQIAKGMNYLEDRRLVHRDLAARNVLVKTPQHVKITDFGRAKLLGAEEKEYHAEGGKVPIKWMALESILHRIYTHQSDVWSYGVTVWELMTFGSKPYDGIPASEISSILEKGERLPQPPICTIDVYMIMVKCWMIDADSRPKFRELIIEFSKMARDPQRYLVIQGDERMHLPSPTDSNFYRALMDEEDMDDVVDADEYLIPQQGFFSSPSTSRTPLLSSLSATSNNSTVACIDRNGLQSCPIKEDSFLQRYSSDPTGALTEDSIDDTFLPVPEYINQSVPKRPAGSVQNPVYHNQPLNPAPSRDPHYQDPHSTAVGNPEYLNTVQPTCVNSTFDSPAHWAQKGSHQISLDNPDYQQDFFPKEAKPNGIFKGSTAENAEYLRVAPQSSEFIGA
# test summary: Biochemical EGFR kinase assay (Lance Ultra TR-FRET), triple mutant L858R/T790M/C797S
# measurement setup: Km ATP; read-out: IC50 L858R/T790M/C797S, Km ATP
Quick note: pIC50 means taking -log10 of the concentration in moles per liter.

# input Given the molecule CC(C)(O)[C@H]1CC[C@@H](Nc2nc(Nc3ccnc(-c4cnn(S(=O)(=O)C5CC5)c4)c3)ncc2-c2ccn(C(F)F)n2)CC1 [Example 365] , what is its reported pIC50?
# output 8.64

# input // lookup pIC50 for CC1(O)CCC(Nc2cc(Nc3ccnc(N4CC(O)C(F)(F)C4)n3)ncc2-c2ccn(C(F)F)n2)CC1 (stereo not shown) [Example 349]
# output 9.52

# input Could you share which pIC50 value was measured for Cn1nc(-c2cnc(Nc3ccnc(-c4cnn(S(=O)(=O)C5CC5)c4)c3)nc2N[C@H]2CC[C@@](C)(O)CC2)cc1C(F)(F)F [Example 356] ?
# output 8.74

# input Please look up its pIC50: Cn1nc(-c2cnc(Nc3ccnc(-c4cnn(CC(F)F)c4)c3)nc2N[C@H]2CC[C@@](C)(O)CC2)cc1C(F)(F)F [Example 361]
# output 8.96

# input Looking for the measured pIC50 of C[C@]1(O)CC[C@@H](Nc2cc(Nc3ccnc(-c4cnn(CC(F)F)c4)n3)ncc2-c2ccn(C(F)(F)F)n2)CC1 [Example 340] , can you help?
# output 9.52

# input I have this molecule here, C[C@]1(O)CC[C@@H](Nc2cc(Nc3ccnc(-c4cnn(S(=O)(=O)C5CC5)c4)n3)ncc2-n2cccn2)CC1 [Example 376] , and I need its recorded pIC50.
# output 10.00

# input Given the molecule Cn1nc(-c2cnc(Nc3ccnc(-c4cnn(S(=O)(=O)C5CC5)c4)c3)nc2N[C@H]2CC[C@@H](F)CC2)cc1C(F)(F)F [Example 371] , what is its reported pIC50?
# output 8.74

# input Entry C[C@]1(O)CC[C@@H](Nc2cc(Nc3nc(-c4cnn(S(=O)(=O)C5CC5)c4)ncc3F)ncc2-c2ccn(CC(F)F)n2)CC1 [Example 345] has what pIC50?
# output 9.05

# input Would you kindly share the measured pIC50 for C[C@]1(O)CC[C@@H](Nc2cc(Nc3ccnc(-c4cnn(S(=O)(=O)C5CC5)c4)n3)nnc2-c2ccn(C(F)F)n2)CC1 [Example 372] ?
# output 9.70

# input Give the measured pIC50 of CC(C)Nc1nc(Nc2ccnc(-c3cnn(S(=O)(=O)C4CC4)c3)c2)ncc1-c1ccn(C(F)F)n1 [Example 363] .
# output 8.37

# input Recorded pIC50 of C[C@]1(O)CC[C@@H](Nc2cc(Nc3ccnc(N4CCC[C@@H](O)C4)n3)ncc2-c2ccn(C(F)F)n2)CC1 [Example 352] , please.
# output 8.32

# input Item C[C@]1(O)CC[C@@H](Nc2cc(Nc3ccnc(-c4cnn(CC(F)F)c4)n3)ncc2-c2ccn(CC(F)F)n2)CC1 [Example 343] has what recorded pIC50?
# output 9.70

# input Give its pIC50 value. Item: C[C@]1(O)CC[C@@H](Nc2nc(Nc3ccnc(-c4cnn(S(=O)(=O)C5CC5)c4)c3)ncc2-c2ccn(C(F)F)n2)CC1 [Example 355]
# output 9.52

# input // returns reported pIC50 for input Cc1nn(CC(F)(F)F)cc1-c1nccc(Nc2cc(N[C@H]3CC[C@@](C)(O)CC3)c(-c3ccn(C(F)(F)F)n3)cn2)n1 [Example 341]
# output 9.05

# input Endpoint output: pIC50 of FC(F)Cn1cc(-c2nccc(Nc3cc(N[C@H]4CC[C@@H](F)CC4)c(-c4ccn(CC(F)(F)F)n4)cn3)n2)cn1 [Example 339] . Value?
# output 9.40

# input Query: pIC50; subject: Cc1nn(CC(F)(F)F)cc1-c1cc(Nc2ncc(-c3ccn(C(F)F)n3)c(N[C@H]3CC[C@@](C)(O)CC3)n2)ccn1 [Example 368]
# output 9.05

# input GET /values?readout=pIC50&item= CN1CCC(n2ccc(-c3cnc(Nc4ccnc(-c5cnn(CC(F)F)c5)n4)cc3N[C@H]3CC[C@@](C)(O)CC3)n2)CC1 [Example 342]
# output 10.00

# input Field request: pIC50 | item: Cc1nn(CC(F)(F)F)cc1-c1cc(Nc2ncc(-c3ccn(CC(F)(F)F)n3)c(N[C@H]3CC[C@@](C)(O)CC3)n2)ccn1 [Example 370]
# output 8.92

# input Entry Cc1nn(CC(F)(F)F)cc1-c1nccc(Nc2cc(N[C@H]3CC[C@@H](CCO)CC3)c(-c3ccn(CC(F)F)n3)cn2)n1 [Example 337] has what pIC50?
# output 9.30

# input Return reported pIC50; argument: O=S(=O)(C1CC1)n1cc(-c2cc(Nc3ncc(-c4ccn(CCC(F)(F)F)n4)c(N[C@H]4CC[C@@H](F)CC4)n3)ccn2)cn1 [Example 367]
# output 8.14

# input Find the recorded pIC50 belonging to CC1(O)CCC(Nc2cc(Nc3ccnc(N4CC(CO)C(C)(C)C4)n3)ncc2-c2ccn(C(F)F)n2)CC1 (stereo not shown) [Example 347] and report it.
# output 9.15

# input Form field: reported pIC50 of Cc1nn(CC(F)(F)F)cc1-c1nccc(Nc2cc(N[C@H]3CC[C@@](C)(O)CC3)c(-c3ccn(C(F)F)n3)nn2)n1 [Example 375]
# output 7.95

Cited source for all entries: patent US12258327B2
